Values were extracted from patent US12383556B2.

- experimentDescription: First-in-human Part 2 multiple ascending dose q.d. blood and urine PK
- Assay type: in vivo
- testConditions: human, whole blood, oral, 10 mg, 10 mg qd, Day 12, blood; Median (Min-Max)

# smilesRepr, AUC(0-inf) [ng·h/mL]
rows = [
    ("C=CC(=O)N(C)CCOc1c(N)ncnc1-c1cc(F)cc(NC(=O)c2ccc(C3CC3)cc2F)c1C", 24.3),
]

----------
- experimentDescription: First-in-human Part 2 multiple ascending dose q.d. blood and urine PK
- Type: in vivo
- testConditions: human, blood, oral, 50 mg, 50 mg qd, Day 1, blood; Mean ± SD; read-out: AUClast
recordedEndpoint: AUC(0-t)

# smilesRepr, recordedEndpoint, measurement
data = [
    ("C=CC(=O)N(C)CCOc1c(N)ncnc1-c1cc(F)cc(NC(=O)c2ccc(C3CC3)cc2F)c1C", "AUC(0-t)", "113 ng·h/mL"),
]
